- Tested on: E. coli biofilms
- Assay Explanation: Biofilm growth assay (spreading biofilm on semi-solid agar), E. coli
- Type: cell-based
- Condition Set: Escherichia coli, biofilm growth assay, overnight 37° C., vs negative controls; Tables 1-5; read-out: E. coli: concentration that reduces the area of the spreading biofilm by greater than or equal to 85%
Provide the reported IC85 of each item.
Response body: numeric value in µg/mL, unit text excluded.

Reported IC85 for CC1(C)CC[C@]2(C(=O)O)CC[C@]3(C)C(=C(c4ccco4)CC4[C@@]5(C)Cc6c(n[nH]c6N)C(C)(C)[C@@H]5CC[C@]43C)[C@@H]2C1 (some centres unmarked) [Example 7] was 1

Entry CC1(C)CC[C@]2(C(=O)n3cnc(S)n3)CC[C@]3(C)C(=CCC4[C@@]5(C)Cc6c(n[nH]c6N)C(C)(C)C5CC[C@]43C)C2C1 (some centres unmarked) [Compound 76] , IC85 reported as 2

// field: IC85; key: CC1(C)CC[C@]2(C(=O)Nc3cc(O)[nH]n3)CC[C@]3(C)C(=CCC4[C@@]5(C)Cc6c(n[nH]c6N)C(C)(C)C5CC[C@]43C)C2C1 (some centres unmarked) [Compound 66] ; value = 1

Memo: CN(C)c1ccc(C2=C3[C@@H]4CC(C)(C)CC[C@]4(C(=O)O)CC[C@@]3(C)[C@]3(C)CC[C@H]4C(C)(C)c5n[nH]c(N)c5C[C@]4(C)C3C2)cc1 (some centres unmarked) [Example 10] , reported IC85: 1

###

- System: Salmonella spp.
- Assay Explanation: Biofilm growth assay, Salmonella spp.
- Type: cell-based
- Condition Set: Table 6, n = 6 isolates; Nutrient Broth, 0.5% glucose, 0.5% Noble agar
- Procedure: The biofilm growth assay was carried out to measure swarming or biofilm spreading on semi-solid agar media in round plates (for example, 100×15 mm), also referred to as Petri dishes. For E. coli, the plates contained LB medium with 0.6% agar and 0.5% glucose. […] The area of the zone of spreading bacteria was then measured and replicates are averaged. Percent inhibition was calculated as 100×(area without compound−area with compound)/(area without compound). […]
Could you please report measured Salmonella spp. (n = 6) inhibitory concentration in the biofilm growth assay for the items listed next?
No unit in the answer, please; the number alone is enough.

Briefly, Salmonella spp. (n = 6) inhibitory concentration in the biofilm growth assay measured for CC(C)(O/N=C(\C(=O)N[C@@H]1C(=O)N2C(C(=O)[O-])=C(C[n+]3ccccc3)CS[C@H]12)c1csc(N)n1)C(=O)O [Ceftazidime, ceftazidime, reference compound] : 0.5

Quick note, Salmonella spp. (n = 6) inhibitory concentration in the biofilm growth assay for NC[C@H]1O[C@H](O[C@H]2[C@H](O)[C@@H](O[C@H]3O[C@H](CO)[C@@H](O)[C@H](N)[C@H]3O)[C@H](N)C[C@@H]2N)[C@H](N)C[C@@H]1O [Tobramycin, tobramcyin, reference compound] landed at 8

Summary for this compound, CC1(C)CC[C@]2(C(=O)O)CC[C@]3(C)C(=CCC4[C@@]5(C)Cc6c(n[nH]c6N)C(C)(C)[C@@H]5CC[C@]43C)[C@@H]2C1 (stereo partly shown) : Salmonella spp. (n = 6) inhibitory concentration in the biofilm growth assay is 1

###

Where a name gives a salt, the structure may show the parent alone.
Metric Name: melting point

Per the records, this compound ( CC1(C)CC[C@]2(C(=O)O)CC[C@]3(C)C(=C(c4ccccc4N)CC4[C@@]5(C)Cc6c(n[nH]c6N)C(C)(C)C5CC[C@]43C)C2C1 (stereo partly shown) (as salt: ammonium) [Example 23] ) has melting point equal to 210 to 230 °C (dec.)

The reported value for CC1(C)CC[C@]2(C(=O)O)CC[C@]3(C)C(=C(c4cccc(O)c4)CC4[C@@]5(C)Cc6c(n[nH]c6N)C(C)(C)C5CC[C@]43C)C2C1 (stereo partly shown) (as salt: ammonium) [Example 16] in terms of melting point is 260 to 280 °C (dec.)

CC1(C)CC[C@]2(c3n[nH]c(O)c3CCNC(N)=O)CC[C@]3(C)C(=CCC4[C@@]5(C)Cc6c(n[nH]c6N)C(C)(C)C5CC[C@]43C)C2C1 (stereo partly shown) [Compound 87] has a reported melting point of > 300 °C

Value of melting point reported for the compound CN(C)c1ccc(C2=C3[C@@H]4CC(C)(C)CC[C@]4(C(=O)O)CC[C@@]3(C)[C@]3(C)CC[C@H]4C(C)(C)c5n[nH]c(N)c5C[C@]4(C)C3C2)cc1 (stereo partly shown) (as salt: ammonium) [Example 10] is > 300 °C

// recorded melting point for CC1(C)CC[C@]2(C(=O)Nc3nnc(S)s3)CC[C@]3(C)C(=CCC4[C@@]5(C)Cc6c(n[nH]c6N)C(C)(C)C5CC[C@]43C)C2C1 (stereo partly shown) (as salt: ammonium) [Compound 74] : > 300 °C

Entry CC1(C)CC[C@]2(c3n[nH]c(O)c3CCN)CC[C@]3(C)C(=C(c4ccoc4CN4CCOCC4)CC4[C@@]5(C)Cc6c(n[nH]c6N)C(C)(C)[C@@H]5CC[C@]43C)[C@@H]2C1 (stereo partly shown) [Compound 92] — recorded melting point = 238 to 240 °C

melting point recorded for this compound, CC1(C)CC[C@]2(C(=O)Nc3cc(S)n[nH]3)CC[C@]3(C)C(=CCC4[C@@]5(C)Cc6c(n[nH]c6N)C(C)(C)C5CC[C@]43C)C2C1 (stereo partly shown) [Compound 79] , is > 300 °C

GET /value?item= CC1(C)CC[C@]2(C(=O)O)CC[C@]3(C)C(=C(c4c[nH]c(CN5CCOCC5)c4)CC4[C@@]5(C)Cc6c(n[nH]c6N)C(C)(C)[C@@H]5CC[C@]43C)[C@@H]2C1 (stereo partly shown) [Example 9] &field=melting point returns 270 to 280 °C (dec.)

melting point reported for this compound CC1(C)CC[C@]2(C(=O)Nc3nnn[nH]3)CC[C@]3(C)C(=CCC4[C@@]5(C)Cc6c(n[nH]c6N)C(C)(C)C5CC[C@]43C)C2C1 (stereo partly shown) [Compound 61] : > 300 °C

Summary for this compound, Cn1nc([C@]23CCC(C)(C)CC2C2=CCC4[C@@]5(C)Cc6c(n[nH]c6N)C(C)(C)C5CC[C@@]4(C)[C@]2(C)CC3)cc1N (stereo partly shown) [Compound 72] : melting point is 195 to 210 °C (dec.)

Quick note, melting point for CC1(C)CC[C@]2(C(=O)Nc3cc(O)[nH]n3)CC[C@]3(C)C(=CCC4[C@@]5(C)Cc6c(n[nH]c6N)C(C)(C)C5CC[C@]43C)C2C1 (stereo partly shown) (as salt: ammonium) [Compound 66] landed at 275 to 295 °C (dec.)

# melting point (compound: CC1(C)CC[C@]2(c3n[nH]c(O)c3N3CCOCC3)CC[C@]3(C)C(=CCC4[C@@]5(C)Cc6c(n[nH]c6N)C(C)(C)[C@@H]5CC[C@]43C)[C@@H]2C1 (stereo partly shown) (as salt: ammonium) [Compound 88] ) is > 300 °C

Per the records, this compound ( CC1(C)CC[C@]2(c3n[nH]c(O)c3N3CCNCC3)CC[C@]3(C)C(=CCC4[C@@]5(C)Cc6c(n[nH]c6N)C(C)(C)C5CC[C@]43C)C2C1 (stereo partly shown) [Compound 90] ) has melting point equal to > 300 °C

# melting point of CC1(C)CC[C@]2(C(=O)O)CC[C@]3(C)C(=C(c4cccnc4)CC4[C@@]5(C)Cc6c(n[nH]c6N)C(C)(C)[C@@H]5CC[C@]43C)[C@@H]2C1 (stereo partly shown) [Example 12] = > 300 °C

What the record says about CC1(C)CC[C@]2(C(=O)O)CC[C@]3(C)C(=C(c4c[nH]c5ccccc45)CC4[C@@]5(C)Cc6c(n[nH]c6N)C(C)(C)[C@@H]5CC[C@]43C)[C@@H]2C1 (stereo partly shown) [Example 8] : melting point is > 300 °C (dec.)

Data point: CC1(C)CC[C@]2(C(=O)O)CC[C@]3(C)C(=C(c4ccc5c(c4)CCN5)CC4[C@@]5(C)Cc6c(n[nH]c6N)C(C)(C)[C@@H]5CC[C@]43C)[C@@H]2C1 (stereo partly shown) (as salt: ammonium) [Example 11] ; melting point = 170 to 190 °C (dec.)

// CC1(C)CC[C@]2(C(=O)Nc3cc(N)n[nH]3)CC[C@]3(C)C(=CCC4[C@@]5(C)Cc6c(n[nH]c6N)C(C)(C)C5CC[C@]43C)C2C1 (stereo partly shown) [Compound 69] : melting point value = > 300 °C

Sure, the documented melting point for C[C@@H]1c2n[nH]c(N)c2C[C@]2(C)C3CC=C4[C@@H]5CC(C)(C)CC[C@]5(C(=O)O)CC[C@@]4(C)[C@]3(C)CC[C@@H]12 (stereo partly shown) (as salt: ammonium) [Example 3] is > 300 °C

Given item CC1(C)CC[C@]2(c3n[nH]c(O)c3CCN)CC[C@]3(C)C(=CCC4[C@@]5(C)Cc6c(n[nH]c6N)C(C)(C)[C@@H]5CC[C@]43C)[C@@H]2C1 (stereo partly shown) (as salt: ammonium) [Compound 84] , the value recorded as its melting point is 250 to 260 °C (dec.)

// melting point value for C/C=C/C1=C2[C@@H]3CC(C)(C)CC[C@]3(C(=O)O)CC[C@@]2(C)[C@]2(C)CC[C@H]3C(C)(C)c4n[nH]c(N)c4C[C@]3(C)C2C1 (stereo partly shown) [Example 5] : > 300 °C

melting point in this record for CCC1=C2[C@@H]3CC(C)(C)CC[C@]3(C(=O)O)CC[C@@]2(C)[C@]2(C)CC[C@H]3C(C)(C)c4n[nH]c(N)c4C[C@]3(C)C2C1 (stereo partly shown) (as salt: ammonium) [Example 14] : > 300 °C

Looking up Cc1nnc(S)n1NC(=O)[C@]12CCC(C)(C)CC1C1=CCC3[C@@]4(C)Cc5c(n[nH]c5N)C(C)(C)C4CC[C@@]3(C)[C@]1(C)CC2 (stereo partly shown) (as salt: ammonium) [Compound 77] , I see its melting point listed as 250 to 270 °C (dec.)
